The origin of these recorded values is patent US20240294541A1.

# Tested on: PFSK-1 (malignant primitive neuroectodermal tumour)
# Assay text: In vitro cytotoxicity, SRB assay, PFSK-1
# Format: cell-based
# Assay conditions: selectivity coefficient vs normal BALB/3T3 cells
For each entry below, report its PFSK-1 SI value.
// no unit string in output, number only

What value of PFSK-1 SI has been recorded for this entry: `CC[C@@H](C(=O)[C@@H](C)[C@@H](O)[C@H](C)[C@@H]1O[C@@H]([C@@H](CC)C(=O)O)CC[C@@H]1C)[C@H]1O[C@]2(C=C[C@@H](NC(=O)NCCCl)[C@]3(CC[C@@](C)([C@H]4CC[C@](O)(CC)[C@H](C)O4)O3)O2)[C@H](C)C[C@@H]1C`
3.1

What value of PFSK-1 SI has been recorded for this entry: `CC[C@@H](C(=O)[C@@H](C)[C@@H](O)[C@H](C)[C@@H]1O[C@@H]([C@@H](CC)C(=O)O)CC[C@@H]1C)[C@H]1O[C@]2(C=C[C@@H](NC(=S)NCC(C)C)[C@]3(CC[C@@](C)([C@H]4CC[C@](O)(CC)[C@H](C)O4)O3)O2)[C@H](C)C[C@@H]1C`
14.1

What value of PFSK-1 SI has been recorded for this entry: `CCCCCCCCNC(=O)N[C@@H]1C=C[C@]2(O[C@H]([C@@H](CC)C(=O)[C@@H](C)[C@@H](O)[C@H](C)[C@@H]3O[C@@H]([C@@H](CC)C(=O)O)CC[C@@H]3C)[C@@H](C)C[C@H]2C)O[C@@]12CC[C@@](C)([C@H]1CC[C@](O)(CC)[C@H](C)O1)O2`
25.3

What value of PFSK-1 SI has been recorded for this entry: `CC[C@@H](C(=O)[C@@H](C)[C@@H](O)[C@H](C)[C@@H]1O[C@@H]([C@@H](CC)C(=O)O)CC[C@@H]1C)[C@H]1O[C@]2(C=C[C@@H](NC(=S)NC3CCCCC3)[C@]3(CC[C@@](C)([C@H]4CC[C@](O)(CC)[C@H](C)O4)O3)O2)[C@H](C)C[C@@H]1C`
9.4

What value of PFSK-1 SI has been recorded for this entry: `C=CCNC(=O)N[C@@H]1C=C[C@]2(O[C@H]([C@@H](CC)C(=O)[C@@H](C)[C@@H](O)[C@H](C)[C@@H]3O[C@@H]([C@@H](CC)C(=O)O)CC[C@@H]3C)[C@@H](C)C[C@H]2C)O[C@@]12CC[C@@](C)([C@H]1CC[C@](O)(CC)[C@H](C)O1)O2`
16.9
